Data provenance is patent US20120237518A1.

SYSTEM_TESTED: T1, recombinant human Trop-2/Fc/His fusion protein (manufactured by R&D) (human, UniProt P09758 27-274, limits assumed)
T1 construct: Bought reagent; also called Trop-2/Fc/His chimeric protein; recombinant Trop-2
T1 sequence: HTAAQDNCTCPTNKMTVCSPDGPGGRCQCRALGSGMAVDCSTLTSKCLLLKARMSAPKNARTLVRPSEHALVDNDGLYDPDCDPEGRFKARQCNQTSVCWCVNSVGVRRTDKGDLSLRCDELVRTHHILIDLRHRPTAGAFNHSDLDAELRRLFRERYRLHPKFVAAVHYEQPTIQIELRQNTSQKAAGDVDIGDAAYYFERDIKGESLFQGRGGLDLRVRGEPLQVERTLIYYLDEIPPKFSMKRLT
METHOD: SPR (Biacore T100), Trop-2/Fc/His captured by Tetra-His antibody, antibody as analyte, Bivalent Analyte model, mean of duplicates
Method: All the operations described below were carried out using Biacore T100 (manufactured by GE Healthcare Bio-sciences). […] Using the software for analysis accompanied with the equipment, the results were analyzed based on Bivalent Analyte model to obtain the binding rate constant and the dissociation rate constant for binding of each antibody to a recombinant human Trop-2/Fc/His fusion protein. […]
RECORDED_ENDPOINT: pKd
Friendly reminder that pKd comes from taking -log10 of the concentration in mol/L.

Sample records with pKd:
KM4097 humanized antibody HV0LV0 (antibody, V domains shown, Expressed from pKANTEX93 (human constant regions) in FUT8 knockout CHO cells; no fucose attached) VH: QVQLVQSGAEVKKPGASVKVSCKASGYTFTIYWLGWVRQAPGQGLEWMGNIFPGSAYINYNEKFKGRVTITADTSTSTAYMELSSLRSEDTAVYYCAREGSNSGYWGQGTLVTVSS VL: DIVMTQSPDSLAVSLGERATINCKSSQSLLNSGNQQNYLAWYQQKPGQPPKLLIYGASTRESGVPDRFSGSGSGTDFTLTISSLQAEDVAVYYCQSDHIYPYTFGQGTKLEIK | 9.28
KM4097 humanized antibody HV10LV2 (antibody, V domains shown, Expressed from pKANTEX93 (human constant regions) in FUT8 knockout CHO cells; no fucose attached) VH: QVQLVQSGPEVVKPGASVKISCKASGYTFTIYWLGWVKQAPGQGLEWIGNIFPGSAYINYNEKFKGKATLTADTSTSTAYMELSSLRSEDTAVYFCAREGSNSGYWGQGTLLTVSS VL: DIVMTQSPDSLAVSLGERVTINCKSSQSLLNSGNQQNYLAWYQQKPGQPPKLLIYGASTRESGVPDRFSGSGSGTDFTLTISSVQAEDVAVYYCQSDHIYPYTFGQGTKLEIK | 9.40

pKd measured on KM4097 humanized antibody HV4LV0 (antibody, V domains shown, Expressed from pKANTEX93 (human constant regions) in FUT8 knockout CHO cells; no fucose attached) VH: QVQLVQSGPEVKKPGASVKVSCKASGYTFTIYWLGWVKQAPGQGLEWIGNIFPGSAYINYNEKFKGRVTITADTSTSTAYMELSSLRSEDTAVYFCAREGSNSGYWGQGTLVTVSS VL: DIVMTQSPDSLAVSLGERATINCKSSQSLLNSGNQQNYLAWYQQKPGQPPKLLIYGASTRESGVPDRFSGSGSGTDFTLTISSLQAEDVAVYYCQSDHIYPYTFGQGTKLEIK = 9.38

pKd measured on KM4097 humanized antibody HV3aLV0 (antibody, V domains shown, Expressed from pKANTEX93 (human constant regions) in FUT8 knockout CHO cells; no fucose attached) VH: QVQLVQSGPEVKKPGASVKVSCKASGYTFTIYWLGWVRQAPGQGLEWMGNIFPGSAYINYNEKFKGKVTITADTSTSTAYMELSSLRSEDTAVYFCAREGSNSGYWGQGTLVTVSS VL: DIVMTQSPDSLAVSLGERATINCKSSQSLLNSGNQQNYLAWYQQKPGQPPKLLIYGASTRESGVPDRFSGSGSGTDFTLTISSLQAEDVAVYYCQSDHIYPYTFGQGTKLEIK = 9.52
